Target: T1, Human CD38 on transiently transfected Expi293 cells (Origene SC321273) (human, UniProt P28907 1-300)
T1 construct: whole, on cells
Assay: flow cytometry, 10 ug/ml scFv-Fc, transfected Expi293 cells
measurement_name: FACS percent gated (%)
Kindly provide the numeric value in % only, without the unit symbol.

40769p2.2.E12 scFv-Fc (scFv, V domains shown, scFv-Fc) VH: EVQLLESGGGLIQPGGSLRLSCTASGFDFSSYGMHWVRQAPGKGLEWVGIISDTGGTTYYGDSVKGRFTISRDNSKSTLYLQMNSLRAEDTALYYCASYIMDVWGQGTTVTVSS VL: QSVLTQPPSASGTPGQRVTISCSGSNSNVGDNAVYWYQQPPGTAPKLLFYGTNRRPSGVPDRFSGSKSGTSASLAISGLQSEDEADYYCAAWDDSLNAWVFGGGTKLTVL: 91.6

# ---- query binder ----
Ask: Give the measured FACS percent gated of 40769p2.2.D9 scFv-Fc (scFv, V domains shown, scFv-Fc) VH: EVQLLESGGGLVQPGGSLRLSCAGSGFTFSDYWMSWVRQAPGKGLEWVSTISITAGIIYYADSVKGRFTISRDNSKNTLYLQMNSLRAEDTAVYYCAKDNWNDYYGMDVWGQGTTVTVSS VL: QSVLTQPPSASGTPGQRVTVSCSGSRSNIRDNYVYWYQQVPGTAPKLLIYKDDQRPSGVPDRFSGSKSGTSASLVISGLQSEDEADYYCATWDGSLNARVFGGGTKLTVL .
Result: 92.6

Value source: patent US20220306762A1
